ASSAY PROTOCOL: AUC in Balb/c mouse plasma infected with Mycobacterium tuberculosis H37Rv at 100 mg/kg, po administered through gavage as 90%/10% PEG200/vitamin -E TPGS formulation
Format: ADME, organism-based
RECORDED METRIC: AUC (ng·h/mL)
Report the figure in ng·h/mL without appending any unit label.

// sample Cn1c(NCCc2ccc(-c3ccc(F)cc3)cc2)nc2cc(Cl)ccc2c1=O , its AUC was 76000

###

ASSAY PROTOCOL: Half life in Balb/c mouse infected with Mycobacterium tuberculosis H37Rv at 100 mg/kg, po administered through gavage as VitE/PEG200/HPC formulation
Assay type: ADME, organism-based
ASSAY CONTEXT: in vivo
RECORDED METRIC: half-life
Your reply should be a number followed by the unit it is expressed in.

// sample Cn1c(NCCc2ccc(-c3ccc(F)cc3)cc2)nc2cc(N)ccc2c1=O , its half-life was 6 h
